test_target: hM5 mAcChR (Homo sapiens, UniProt P08912)
Sequence (P08912 1-532): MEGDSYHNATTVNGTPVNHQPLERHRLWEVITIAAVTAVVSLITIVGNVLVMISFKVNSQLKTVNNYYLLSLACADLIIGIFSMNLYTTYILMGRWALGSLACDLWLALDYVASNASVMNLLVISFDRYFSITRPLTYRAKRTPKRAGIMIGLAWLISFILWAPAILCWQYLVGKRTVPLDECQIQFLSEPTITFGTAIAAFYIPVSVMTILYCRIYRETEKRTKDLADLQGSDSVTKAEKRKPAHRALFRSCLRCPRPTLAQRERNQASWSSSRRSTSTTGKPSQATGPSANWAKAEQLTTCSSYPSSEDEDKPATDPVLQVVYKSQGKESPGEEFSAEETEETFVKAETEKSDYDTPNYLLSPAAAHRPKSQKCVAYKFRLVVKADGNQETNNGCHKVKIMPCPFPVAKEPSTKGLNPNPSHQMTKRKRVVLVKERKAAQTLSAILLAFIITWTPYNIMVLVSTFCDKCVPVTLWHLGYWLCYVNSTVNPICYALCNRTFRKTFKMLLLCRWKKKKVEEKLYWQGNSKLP
experiment_description: [3H]NMS binding to membranes from CHO-K1 cells expressing hM5
Kindly state M3/M5 for each of the entries shown.

Record `COc1ccc(CCOC(=O)C2=C(c3cccc(F)c3)CCN(C)C2)cc1OC` has hM5 mAcChR (Homo sapiens, UniProt P08912) M3/M5 equal to >100,000 (>30)

Record `CN1CCC(c2ccccc2)=C(C(=O)OCCc2ccc3c(c2)CCO3)C1` has hM5 mAcChR (Homo sapiens, UniProt P08912) M3/M5 equal to 2,840 (47)

Record `CCN1CCC(c2ccccc2)=C(C(=O)OCCc2ccc3c(c2)CCO3)C1` has hM5 mAcChR (Homo sapiens, UniProt P08912) M3/M5 equal to 31,100 (135)

Record `CN1CCC(c2ccccc2)=C(C(=O)OCCc2cccc3ccccc23)C1` has hM5 mAcChR (Homo sapiens, UniProt P08912) M3/M5 equal to >100,000 (>20)

Record `CN1CCC(c2ccccc2F)=C(C(=O)OCCc2ccc3c(c2)CCO3)C1` has hM5 mAcChR (Homo sapiens, UniProt P08912) M3/M5 equal to 4,890 (6.6)

* * *

test_target: hM5 mAcChR (Homo sapiens, UniProt P08912)
experiment_description: [3H]NMS binding to membranes from CHO-K1 cells expressing hM5
recorded_metric: binding affinity at M5 receptor (in words)

Record CCCCN1CCC(c2ccccc2)=C(C(=O)OCCc2ccc(OC)cc2)C1 [Compound 44] , field binding affinity at M5 receptor (in words): eliminated affinity

Record CCCN1CCC(c2ccccc2)=C(C(=O)OCCc2ccc(OC)cc2)C1 [Compound 43] , field binding affinity at M5 receptor (in words): eliminated affinity

Record COc1ccc(CCOC(=O)C2=C(c3ccccc3)CCN(Cc3ccc(OC)cc3)C2)cc1 [Compound 40] , field binding affinity at M5 receptor (in words): eliminated affinity
